Listing: Population Hoechst High Intensity Objects (%) of selected molecules
# Tested on: U2OS
# test summary: Multiplex assay against U2OS
# Type: toxicity, cell-based
# measurement conditions: human, 12 h, 10 µM, compound concentration 10 uM, replicate 2
Write it as a number; the unit % goes unstated.

| molecule | observed |
| --- | --- |
| CCCc1cc(C)[nH]c(=O)c1CNC(=O)c1cc(-c2ccc(N3CCN(C(C)C)CC3)nc2)cc2c1cnn2C(C)C | 5 |
| CCCCN(CC)c1nc(C)nc2c1c(C)cn2-c1c(C)cc(C)cc1C.Cl | 6 |
| CC(C)[C@H](CO)Nc1nc(Nc2cccc(Cl)c2)c2ncn(C(C)C)c2n1 | 7 |

Note: attention shifts to another entry.
Population Hoechst High Intensity Objects (%) lookup needed for CC[C@@H]1C(=O)N(C)c2cnc(Nc3ccc(C(=O)NC4CCN(C)CC4)cc3OC)nc2N1C1CCCC1 , thanks.
8

----------
Listed next: entries and their corresponding Population Tubulin-Different-Phenotype (%).
# Tested on: Fibroblast
# test summary: Multiplex assay against human fibroblast
# Assay type: toxicity, cell-based
# measurement conditions: 12 h, 10 µM, compound concentration 10 uM, replicate 1

Field: example entries. Status: answers known.
| compound | observed |
| --- | --- |
| CC(Cc1ccc(O)c(O)c1)C(C)Cc1ccc(O)c(O)c1 (stereo not drawn) [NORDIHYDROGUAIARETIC ACID] | 13% |
| Cl.NC[C@@H]1O[C@H](C23CC4CC(CC(C4)C2)C3)Cc2c1ccc(O)c2O | 46% |
| CC(C)c1cc(Nc2nc(N3CCC[C@H](N)C3)ncc2C(N)=O)cc(C(C)C)n1 | 76% |
| CS(=O)(=O)N1CCCC(NC(=O)[C@H](CCC2CCCCC2)NC(=O)c2ccc(CNC(=O)c3cnc4ccccn34)cc2)C1 (stereo partly drawn) | 86% [middle of 4 runs] |
| Cc1c(Nc2ccc(S(=O)(=O)N3CCN(C)CC3)cc2F)nc2ccc(Nc3cnn(C4CC4)c3)cn2c1=O | 2% |
| CCCc1cc(C)[nH]c(=O)c1CNC(=O)c1cc(-c2ccc(N3CCN(C(C)C)CC3)nc2)cc2c1cnn2C(C)C | 69% |
| CCOC(=O)CCNc1cc(N2CCc3ccccc3CC2)nc(-c2ccccn2)n1 | 13% |

From here, focus on the item given below.
# input compound: CC(/C=C1\SC(=S)N(CCCC(=O)Nc2ccc(C(=O)O)c(O)c2)C1=O)=C\c1ccccc1 ; wanted: its Population Tubulin-Different-Phenotype (%)
54%

----------
# Tested on: HEK-293T
# test summary: Multiplex assay against HEK293T
# Assay type: toxicity, cell-based
# measurement conditions: human, 48 h, 10 µM, compound concentration 10 uM, replicate 2
# reported Population Pyknosed Nuclei (%); entries follow
A number alone suffices; assume %.

| molecule | readout units | Population Pyknosed Nuclei (%) |
| --- | --- | --- |
| CN1CCN(Cc2ccc(-c3cnc4[nH]cc(-c5ccc6[nH]ccc6c5)c4c3)cc2)CC1 | % | 75 |

If you can, please state the reported Population Pyknosed Nuclei (%) value of CCCCCNC(=N)N/N=C/c1c[nH]c2ccc(OC)cc12.O=C(O)/C=C\C(=O)O [TEGASEROD MALEATE] .
20

Entry CCCc1cc(C)[nH]c(=O)c1CNC(=O)c1cc(-c2ccc(N3CCN(C(C)C)CC3)nc2)cc2c1cnn2C(C)C : reported Population Pyknosed Nuclei (%) = ?
62

Would you mind telling me what Population Pyknosed Nuclei (%) value was observed for c1ccc(-c2oc3ncnc(NC[C@@H]4CCCO4)c3c2-c2ccccc2)cc1 ?
31

Give the measured Population Pyknosed Nuclei (%) of CN(c1cc(C(F)(F)F)nc(OCCC(=O)O)n1)c1cccc2c1CCC2 .
11

Returns the measured Population Pyknosed Nuclei (%) for the input molecule. Input: CC(C)[C@H](CO)Nc1nc(Nc2cccc(Cl)c2)c2ncn(C(C)C)c2n1 [PURVALANOLA]
55

So what's the measured Population Pyknosed Nuclei (%) for this one? CC(Cc1ccc(O)c(O)c1)C(C)Cc1ccc(O)c(O)c1 (stereo not drawn) [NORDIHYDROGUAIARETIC ACID]
25

# Population Pyknosed Nuclei (%) lookup, item CC(C)C[C@H](NC(=O)[C@H](Cc1ccccc1)NC(=O)CNC(=O)CNC(=O)[C@@H](N)Cc1ccc(O)cc1)C(=O)O [ENKEPHALIN]
8

----------
# Tested on: HEK-293T
# test summary: Incucyte cell viability with HEK293T; also: filed as whole numbers so only -1 and 0 and 1 occur
# Assay type: toxicity, cell-based
# measurement conditions: human, 12 h, 10 µM, compound concentration 10 uM, replicate number 2, timepoint 12 hours
measurement name: Growth Rate

// lookup Growth Rate | system=HEK-293T | key= CN1C(=O)[C@@H](NC(=O)c2cc3ccccc3[nH]2)N=C(c2ccccc2)c2ccccc21 [DEVAZEPIDE]
0

State its Growth Rate on HEK-293T: O=C(N1CCS(=O)(=O)CC1)N1C[C@H](c2ccc(OC(F)(F)F)cc2)C[C@H](c2nc(C3CC3)no2)C1
1

Lookup: Growth Rate / HEK-293T / Cc1cc2c(cc1C1(c3ccc(C(=O)O)cn3)CC1)C(C)(C)CCC2(C)C
0

# get_value(readout= Growth Rate, system= HEK-293T) for CN(CCOc1ccc(CC2SC(=O)NC2=O)cc1)c1ccccn1 (centres undefined)
0

----------
# maps each entry to its Population Healthy Nuclei (%)
# System: HEK-293T
# test summary: Multiplex assay against HEK293T
# Type: toxicity, cell-based
# measurement conditions: human, 24 h, 1 µM, compound concentration 1 uM, replicate 1
Could you give me the number in %? Just the number is fine.

| compound | Population Healthy Nuclei (%) |
| --- | --- |
| CC(C)c1cc(Nc2nc(N3CCC[C@H](N)C3)ncc2C(N)=O)cc(C(C)C)n1 | 28 |
| Cc1ccc(S(=O)(=O)NC2c3ccccc3Oc3ccccc32)cc1 | 47 |
| CCCCCNC(=N)N/N=C/c1c[nH]c2ccc(OC)cc12.O=C(O)/C=C\C(=O)O [TEGASEROD MALEATE] | 60 |
| CCOC(=O)CCNc1cc(N2CCc3ccccc3CC2)nc(-c2ccccn2)n1 | 79 |
| Oc1cccc(-c2nc(N3CCOCC3)c3oc4ncccc4c3n2)c1 | 10 |
| Cl.Cn1c2c(c3ccc(Cl)c(Cl)c31)C(C#N)C1(CCNCC1)NC2=O (centres undefined) | 77 |
| Cc1c(Nc2ccc(S(=O)(=O)N3CCN(C)CC3)cc2F)nc2ccc(Nc3cnn(C4CC4)c3)cn2c1=O | 60 |
| CC(Cc1ccc(O)c(O)c1)C(C)Cc1ccc(O)c(O)c1 (centres undefined) [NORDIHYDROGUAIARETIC ACID] | 42 |

Please tell me: Population Healthy Nuclei (%) of N#Cc1cccc(C(=O)Nc2cc(-c3ccccc3)nn2-c2ccccc2)c1 , system HEK-293T?
37

What Population Healthy Nuclei (%) appears in the records for this compound with HEK-293T? CC(C)C[C@H](NC(=O)[C@H](Cc1ccccc1)NC(=O)CNC(=O)CNC(=O)[C@@H](N)Cc1ccc(O)cc1)C(=O)O
21

Which Population Healthy Nuclei (%) is reported with HEK-293T for this entry: CC(C)[C@H](CO)Nc1nc(Nc2cccc(Cl)c2)c2ncn(C(C)C)c2n1 ?
36

# returns recorded Population Healthy Nuclei (%) (system: HEK-293T) for N#CCNC(=O)c1ccc(-c2ccnc(Nc3ccc(N4CCOCC4)cc3)n2)cc1
58

Item CN(c1cc(C(F)(F)F)nc(OCCC(=O)O)n1)c1cccc2c1CCC2 with HEK-293T - Population Healthy Nuclei (%)?
30

# returns recorded Population Healthy Nuclei (%) (system: HEK-293T) for CC(/C=C1\SC(=S)N(CCCC(=O)Nc2ccc(C(=O)O)c(O)c2)C1=O)=C\c1ccccc1
41

----------
# System: Fibroblast
# test summary: Multiplex assay against human fibroblast
# Type: toxicity, cell-based
# measurement conditions: 12 h, 10 µM, compound concentration 10 uM, replicate 1
measurement name: Population Mitotic Cells (%)
Reply numerically in %, unit not repeated.

The following compounds have reported results that may help.
| molecule | readout units | observed |
| --- | --- | --- |
| N#Cc1cccc(C(=O)Nc2cc(-c3ccccc3)nn2-c2ccccc2)c1 | % | 50 |
| CCOC(=O)CCNc1cc(N2CCc3ccccc3CC2)nc(-c2ccccn2)n1 | % | 31 |
| C[C@@H](Oc1cc(-n2cnc3ccc(CN4CCN(C)CC4)cc32)sc1C(N)=O)c1ccccc1C(F)(F)F | % | 21 |
| CN(c1cc(C(F)(F)F)nc(OCCC(=O)O)n1)c1cccc2c1CCC2 | % | 38 |

API: the following record is the query input.
Fill blank: measured Population Mitotic Cells (%) of the compound NC(=O)c1ccc2nc(-c3ccc(C4(N)CCC4)cc3)c(-c3ccccc3)n2n1 is ____.
40
